System: MS2 coat protein
experimental-details: apparent KD of MS2 coat protein, switch ON state; designed switch direction (-1 OFF switch, 1 ON switch): -1; higher = weaker reporter binding
test-context: FMN input: 0 or 200 uM; Eterna round: R93 (includes R88 designs)
Label Fulfilled for high-side apparent KD of MS2 coat protein (at or above 0.03 µM) and Not fulfilled for low-side apparent KD of MS2 coat protein (below it).

Q: Has AUAAAGUGAGGAUAUGUAAAAAUAACGAAAGUUAUAAAUAAACAGAAGGCACAUGAGGAUCACCCAUGUGAAAU [Meechl MS2 EX4 62% 2] a recorded apparent KD of MS2 coat protein greater than or equal to 0.03 µM?
A: Not fulfilled

Q: Evaluate AGUGAGUGAGGAUAUCACUGAAGAAUAAAAGAAAUAACGAGUGAGAAGGCACAUGAGGAUCACCCAUGUACACA [May 63] : apparent KD of MS2 coat protein at minimum 0.03 µM?
A: Not fulfilled

Q: Is reported apparent KD of MS2 coat protein greater than or equal to 0.03 µM here: AAAAAGUCAGGAUAUCGGAAAAAAAAAAAAAAAAAAAAAAACGAGAAGGGACAUGAGGAUCACCCAUGUAUGAC [Ex 4 May 7]
A: Fulfilled

Q: hey, is apparent KD of MS2 coat protein for this one >= 0.03 µM? AACGAGUCAGGAUAUACAAAAAGUAAAUAAGUAAAACCAAAGUAGAAGGGACAUGAGGAUCACCCAUGUAAAUA [JR_Exc004_Sub019]
A: Fulfilled

Q: Check if apparent KD of MS2 coat protein >= 0.03 µM (inclusive). Item: AGCUAACAUGAGGAUCACCCAUGUCAGGAUAUGCAAAGAUCGAUCGAACGAUCGAUAAGCAGAAGGGACACUGA [Amethyst 94]
A: Not fulfilled

Q: Does apparent KD of MS2 coat protein meet or surpass 0.03 µM for AAGAAGACAGGAUAUACAUGAGGAUCACCCAUGUAAAAGAAAGAAAAGGGAAAGAAAAGUAGAAGGGUCAAGAA [Menkheperure Thutmose IV] ?
A: Fulfilled
